# study.target: BTK C481S kinase (Homo sapiens, UniProt Q06187, C481S)
# Sequence (Q06187 whole entry C481S): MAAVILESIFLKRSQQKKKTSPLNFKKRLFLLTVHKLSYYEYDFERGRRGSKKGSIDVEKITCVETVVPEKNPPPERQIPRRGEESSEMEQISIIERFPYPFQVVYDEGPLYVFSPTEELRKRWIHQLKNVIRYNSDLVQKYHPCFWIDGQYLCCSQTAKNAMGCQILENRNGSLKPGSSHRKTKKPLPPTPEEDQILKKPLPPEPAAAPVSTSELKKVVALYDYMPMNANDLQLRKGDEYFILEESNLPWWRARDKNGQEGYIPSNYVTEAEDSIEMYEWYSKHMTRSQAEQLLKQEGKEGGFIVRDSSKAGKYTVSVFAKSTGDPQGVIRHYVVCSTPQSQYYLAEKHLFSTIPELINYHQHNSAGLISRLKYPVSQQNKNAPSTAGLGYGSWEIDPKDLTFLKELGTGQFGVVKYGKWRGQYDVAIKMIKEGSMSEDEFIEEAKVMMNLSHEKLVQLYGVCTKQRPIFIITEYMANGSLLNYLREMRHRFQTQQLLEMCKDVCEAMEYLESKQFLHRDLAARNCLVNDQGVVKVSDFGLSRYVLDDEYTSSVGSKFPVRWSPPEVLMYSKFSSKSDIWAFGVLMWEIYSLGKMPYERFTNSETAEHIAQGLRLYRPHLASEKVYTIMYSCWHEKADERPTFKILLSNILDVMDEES
# protocol.summary: HTRF kinase activity inhibition assay, BTK C481S
# applied.conditions: HTRF TK kit
assay.endpoint: IC50

Sample records with IC50:
COc1ccc(F)cc1C(=O)NCc1ccc(-c2nn(C3CCC(CO)OC3)c3ncnc(N)c23)cc1 (single isomer, unassigned) : ≤ 10 nM
COc1ccc(F)cc1C(=O)NCc1ccc(-c2cc(C3CCC(CO)OC3)n3ncnc(N)c23)cc1 (single isomer, unassigned) [Example 60] : ≤ 10 nM
COc1ccc(F)cc1C(=O)NCc1ccc(-c2nn([C@H]3CC[C@@H](O)CC3)c3ncnc(N)c23)cc1 : ≤ 10 nM

Give its IC50 value. Item: COc1ccc(F)cc1C(=O)NCc1ccc(-c2nn(C3CCC(O)CC3)c3ncnc(N)c23)cc1 (stereo not drawn)
≤ 10 nM

Endpoint output: IC50 of "COc1ccc(F)cc1C(=O)NCc1ccc(-c2nn([C@H]3CC[C@H](CO)CC3)c3ncnc(N)c23)cc1" . Value?
≤ 10 nM

Requested field: IC50. Item: COc1ccc(F)cc1C(=O)NCc1ccc(-c2nc(C3CCCC(O)C3)n3ccnc(N)c23)cc1 (stereo not drawn) [Example 20]
10 to 50 nM

# lookup: IC50 of "COc1ccc(F)cc1C(=O)NCc1ccc(-c2nn([C@H]3CC[C@@H](CO)CC3)c3ncnc(N)c23)cc1"
≤ 10 nM

# query: IC50 of entry COc1ccc(F)cc1C(=O)NCc1ccc(-c2nn(C3CCCC(O)C3)c3ncnc(N)c23)cc1 (single isomer, unassigned) [Example 8]
10 to 50 nM

# input compound: COc1ccc(F)cc1C(=O)NCc1ccc(-c2nn(C3CCCC(O)C3)c3ncnc(N)c23)cc1 (stereo not drawn) [Example 4] ; wanted: its IC50
≤ 10 nM

---

# study.target: phosphorylated BTK Y223 in NIH/3T3 BTK WT cells (Homo sapiens, UniProt Q06187)
# Sequence (Q06187 whole entry): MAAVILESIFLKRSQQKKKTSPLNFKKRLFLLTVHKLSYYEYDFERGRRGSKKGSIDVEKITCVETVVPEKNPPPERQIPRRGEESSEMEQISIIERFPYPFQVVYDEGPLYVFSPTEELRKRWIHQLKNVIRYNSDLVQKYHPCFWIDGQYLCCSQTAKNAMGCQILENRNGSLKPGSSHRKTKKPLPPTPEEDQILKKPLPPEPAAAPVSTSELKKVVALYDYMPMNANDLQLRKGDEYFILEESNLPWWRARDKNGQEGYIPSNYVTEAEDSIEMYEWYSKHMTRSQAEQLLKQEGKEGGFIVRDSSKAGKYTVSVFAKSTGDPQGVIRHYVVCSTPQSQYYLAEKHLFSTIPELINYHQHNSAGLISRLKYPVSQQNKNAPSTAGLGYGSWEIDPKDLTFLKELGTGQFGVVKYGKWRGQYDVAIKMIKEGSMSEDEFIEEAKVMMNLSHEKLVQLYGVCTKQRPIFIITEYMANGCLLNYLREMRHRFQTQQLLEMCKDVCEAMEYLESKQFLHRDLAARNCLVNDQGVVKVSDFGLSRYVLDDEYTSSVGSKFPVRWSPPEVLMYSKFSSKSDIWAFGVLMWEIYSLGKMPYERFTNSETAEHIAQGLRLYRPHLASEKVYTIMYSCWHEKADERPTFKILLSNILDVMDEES
# protocol.summary: Phosphor-BTK(Y223) assay, NIH/3T3 BTK WT cells
# applied.conditions: phosphorylated BTK Y223, NIH/3T3 BTK WT cells; read-out: NIH/3T3 BTK-WT pBTK IC50
assay.endpoint: IC50

COc1ccc(F)cc1C(=O)NCc1ccc(-c2nn(C3CCC(CO)OC3)c3c(=O)[nH]nc(N)c23)cc1 (stereo not drawn) [Example 43] : 100 to 500 nM
COc1ccc(F)cc1C(=O)NCc1ccc(-c2cc(C3CCC(CO)OC3)n3ncnc(N)c23)cc1 (single isomer, unassigned) [Example 60] : ≤ 25 nM
COc1ccc(F)cc1C(=O)NCc1ccc(-c2cc(C3CCC(CO)OC3)n3ncnc(N)c23)cc1 (single isomer, unassigned) [Example 61] : ≤ 25 nM
COc1ccc(F)cc1C(=O)NCc1ccc(-n2cc(C3CCC(CO)OC3)c3ncnc(N)c32)cc1 (single isomer, unassigned) [Example 51] : 25 to 50 nM

Kindly state the measured IC50 obtained for COc1ccc(F)cc1C(=O)NCc1ccc(-c2nn(C3CCCC(O)C3)c(N)c2C(N)=O)cc1 (single isomer, unassigned) [Example 3] with phosphorylated BTK Y223 in NIH/3T3 BTK WT cells (Homo sapiens, UniProt Q06187).
100 to 500 nM

Notebook entry, phosphorylated BTK Y223 in NIH/3T3 BTK WT cells (Homo sapiens, UniProt Q06187) assay: IC50 of COc1ccc(F)cc1C(=O)NCc1ccc(-c2nn(C3CCCC(O)C3)c(N)c2C(N)=O)cc1 (single isomer, unassigned) [Example 2] = ?
50 to 100 nM

---

# pIC50 per entry
# study.target: phosphorylated BTK Y223 in NIH/3T3 BTK WT cells (Homo sapiens)
# protocol.summary: Phosphor-BTK(Y223) assay, NIH/3T3 BTK WT cells
# applied.conditions: phosphorylated BTK Y223, NIH/3T3 BTK WT cells; read-out: NIH/3T3 BTK-WT pBTK IC50
pIC50: −log10 of the molar value.

See these solved cases before continuing.
COc1ccc(F)cc1C(=O)NCc1ccc(-c2nn(C3CCC(CO)OC3)c(N)c2C(N)=O)cc1 (single isomer, unassigned) [Example 14] : 7.00 to 7.30
COc1ccc(F)cc1C(=O)NCc1ccc(-c2nn(C3CCCC(O)C3)c3ncnc(N)c23)cc1 (stereo not shown) [Example 4] : ≥ 7.60
COc1ccc(F)cc1C(=O)NCc1ccc(-c2nn(C3CCCC(C)(O)C3)c3ncnc(N)c23)cc1 (single isomer, unassigned) [Example 24] : ≥ 7.60

I would be grateful if you could share the reported pIC50 for COc1ccc(F)cc1C(=O)NCc1ccc(-c2nn([C@H]3CC[C@H](CO)CC3)c3ncnc(N)c23)cc1 [Example 56] .
≥ 7.60

Which pIC50 reading was recorded for the compound COc1ccc(F)cc1C(=O)NCc1ccc(-c2nn(C3CCCC(O)C3)c(N)c2C(N)=O)cc1 (stereo not shown) [Example 1] ?
6.30 to 7.00

What measured pIC50 goes with COc1ccc(F)cc1C(=O)NCc1ccc(-c2nn(C3CCC(CO)OC3)c3c(=O)[nH]nc(N)c23)cc1 (single isomer, unassigned) [Example 48] ?
6.30 to 7.00

What value of measured pIC50 is listed for COc1ccc(F)cc1C(=O)NCc1ccc(-c2nn(C3CCC(CO)OC3)c3ncnc(N)c23)cc1 (stereo not shown) [Example 15] ?
≥ 7.60

---

# study.target: phosphorylated BTK Y223 in NIH/3T3 BTK C481S cells (Homo sapiens, UniProt Q06187, C481S)
# protocol.summary: Phosphor-BTK(Y223) assay, NIH/3T3 BTK C481S cells
# applied.conditions: phosphorylated BTK Y223, NIH/3T3 BTK C481S cells; read-out: NIH/3T3 BTK-C481S pBTK IC50
This section presents compounds with their documented IC50 values.

Solved cases below.
COc1ccc(F)cc1C(=O)NCc1ccc(-c2nn(C3CCC(CO)OC3)c3c(=O)[nH]nc(N)c23)cc1 (single isomer, unassigned) [Example 47] : 100 to 500 nM
COc1ccc(F)cc1C(=O)NCc1ccc(-c2nn(C3CCCC(C)(O)C3)c3ncnc(N)c23)cc1 (single isomer, unassigned) [Example 25] : 25 to 50 nM

Turning now to a further record.
Give its IC50 value. Item: COc1ccc(F)cc1C(=O)NCc1ccc(-c2nn(C3CCC(O)C3)c3c(=O)[nH]nc(N)c23)cc1 (stereo not drawn) [Example 42]
50 to 100 nM

---

# study.target: phosphorylated BTK Y223 in NIH/3T3 BTK WT cells (Homo sapiens, UniProt Q06187)
# protocol.summary: Phosphor-BTK(Y223) assay, NIH/3T3 BTK WT cells
# applied.conditions: phosphorylated BTK Y223, NIH/3T3 BTK WT cells; read-out: NIH/3T3 BTK-WT pBTK IC50
pIC50: −log10 of the molar value.
In this section we review reported pIC50 values for a set of compounds.

Completed entries (count: 3):
COc1ccc(F)cc1C(=O)NCc1ccc(-c2nn(C3CCC(CO)OC3)c(N)c2C(N)=O)cc1 (single isomer, unassigned) [Example 13] : 7.00 to 7.30
COc1ccc(F)cc1C(=O)NCc1ccc(-c2nn(C3CCC(CO)OC3)c3c(=O)[nH]nc(N)c23)cc1 (single isomer, unassigned) [Example 47] : 6.30 to 7.00
COc1ccc(F)cc1C(=O)NCc1ccc(-c2nn([C@@H]3C=C[C@@H](O)C3)c3ncnc(N)c23)cc1 (single isomer, unassigned) [Example 50] : ≥ 7.60

Please report the recorded pIC50 for COc1ccc(F)cc1C(=O)NCc1ccc(-c2nn(C3CCCC(O)C3)c3ncnc(N)c23)cc1 (single isomer, unassigned) [Example 5] .
≥ 7.60

May I ask what pIC50 has been recorded for COc1ccc(F)cc1C(=O)NCc1ccc(-c2nn([C@H]3CC[C@H](O)CC3)c3c(=O)[nH]nc(N)c23)cc1 [Example 40] ?
7.30 to 7.60

// pIC50 lookup, key: COc1ccc(F)cc1C(=O)NCc1ccc(-c2nn(C3CCC(CO)OC3)c3ncnc(N)c23)cc1 (single isomer, unassigned) [Example 19]
7.30 to 7.60

---

As shown below, each of these molecules has a reported pIC50 value.
# study.target: TEC (Homo sapiens)
# Sequence (P42680 1-631): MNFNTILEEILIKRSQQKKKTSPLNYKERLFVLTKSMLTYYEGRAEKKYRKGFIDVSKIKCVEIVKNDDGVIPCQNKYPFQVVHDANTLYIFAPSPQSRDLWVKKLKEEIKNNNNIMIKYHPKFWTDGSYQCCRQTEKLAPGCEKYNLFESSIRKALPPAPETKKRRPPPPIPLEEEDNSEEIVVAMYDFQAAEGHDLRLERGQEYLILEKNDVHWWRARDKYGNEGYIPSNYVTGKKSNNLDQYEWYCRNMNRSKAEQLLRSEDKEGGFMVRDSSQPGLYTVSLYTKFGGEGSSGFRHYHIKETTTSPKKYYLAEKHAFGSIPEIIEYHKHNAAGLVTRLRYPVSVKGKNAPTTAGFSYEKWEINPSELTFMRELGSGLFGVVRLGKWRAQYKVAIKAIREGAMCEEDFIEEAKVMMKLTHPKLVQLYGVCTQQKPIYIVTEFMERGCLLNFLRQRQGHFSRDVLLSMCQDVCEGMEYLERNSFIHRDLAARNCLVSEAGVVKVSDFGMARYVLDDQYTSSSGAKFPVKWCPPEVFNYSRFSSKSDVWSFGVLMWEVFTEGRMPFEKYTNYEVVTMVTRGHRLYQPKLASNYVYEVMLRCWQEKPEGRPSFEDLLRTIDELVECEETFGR
pIC50: −log10 of the molar value.

The examples below pair each entry with its known result.
COc1ccc(F)cc1C(=O)NCc1ccc(-c2nn(C3CCCC(O)C3)c3ncnc(N)c23)cc1 (single isomer, unassigned) [Example 5] : 6.00 to 7.00
COc1ccc(F)cc1C(=O)NCc1ccc(-c2nn(C3CCC(O)C3)c3ncnc(N)c23)cc1 (single isomer, unassigned) [Example 31] : 6.00 to 7.00
COc1ccc(F)cc1C(=O)NCc1ccc(-c2nc(C3CCCC(O)C3)n3ccnc(N)c23)cc1 (single isomer, unassigned) : 6.00 to 7.00
COc1ccc(F)cc1C(=O)NCc1ccc(-c2nn(C3CCCC(O)C3)c3ncnc(N)c23)cc1 (single isomer, unassigned) [Example 6] : 6.00 to 7.00
COc1ccc(F)cc1C(=O)NCc1ccc(-c2nn(C3CCCC(O)C3)c3ncnc(N)c23)cc1 (single isomer, unassigned) [Example 7] : 6.00 to 7.00

// moving on: another record for pIC50
Fill blank: measured pIC50 of the molecule COc1ccc(F)cc1C(=O)NCc1ccc(-c2nn(C3CCCC(O)C3)c3ncnc(N)c23)cc1 (single isomer, unassigned) [Example 8] is ____.
5.00 to 6.00
